- test_method_notes: in vivo
- experimental_context: mouse, iv
property: LD50

1. CCOC(=O)C=CCN1CCN(C(c2ccccc2)c2ccccc2)CC1 [Compound 7]: 100 mg/kg
2. C=C(CN1CCCCC1)CN1CCN(C(c2ccccc2)c2ccccc2)CC1 [Compound 6]: 8.6 mg/kg
3. c1ccc(C(c2ccccc2)N2CCN(CCCC3(c4ccccc4)OCCO3)CC2)cc1 [Compound 13]: 42.5 mg/kg
4. O=C1NCC(CN2CCN(C(c3ccccc3)c3ccccc3)CC2)O1 (stereo not drawn) [Compound 15]: 40 mg/kg
5. Cl.Cl.c1ccc(C(c2ccccc2)N2CCN(CC3CC3)CC2)cc1 [Compound 1]: 25.6 mg/kg
6. O=C(CCCN1CCN(C(c2ccccc2)c2ccccc2)CC1)c1ccccc1 [Compound 11]: 21 mg/kg

From: patent US4883797A
